- subject_of_test: HLA-A*02:16
- test_details: IEDB peptide-MHC binding, purified MHC/competitive/fluorescence; filed as Kd, often an IC50 or EC50 that approximates it; bounds were set here for any values at or beyond the usual limits of such assays
- condition_label: source organism: Campylobacter jejuni subsp. jejuni NCTC 11168 = ATCC 700819
pKd: −log10 of the molar value.
measured_endpoint: pKd

sequence_code=AELIDSFTW data_value="≤ 4.70"

====

- subject_of_test: HLA-A*01:01
- test_details: IEDB peptide-MHC binding, purified MHC/direct/fluorescence; filed as Kd, often an IC50 or EC50 that approximates it; bounds were set here for any values at or beyond the usual limits of such assays
- condition_label: source organism: Giardia intestinalis
measured_endpoint: Kd

sequence_code=LEKWNLGII measured_endpoint=Kd data_value="≥ 20 µM"

====

Listed sequences paired with reported IC50
- subject_of_test: HLA-A*02:01
- test_details: IEDB peptide-MHC binding, purified MHC/competitive/radioactivity; bounds were set here for any values at or beyond the usual limits of such assays
- condition_label: source organism: Homo sapiens
measured_endpoint: IC50 (µM)

sequence_code=PTLDKVLEL measured_endpoint=IC50 data_value=10
sequence_code=RTLDKVLEV measured_endpoint=IC50 data_value=0.04

====

- subject_of_test: HLA-A*29:02
- test_details: IEDB peptide-MHC binding, purified MHC/competitive/fluorescence; filed as Kd, often an IC50 or EC50 that approximates it; bounds were set here for any values at or beyond the usual limits of such assays
- condition_label: source organism: Brucella canis ATCC 23365
pKd: −log10 of the molar value.
measured_endpoint: pKd

sequence_code=QWALLPYLF measured_endpoint=pKd data_value="≥ 10.00"

====

- subject_of_test: HLA-A*24:03
- test_details: IEDB peptide-MHC binding, purified MHC/competitive/fluorescence; filed as Kd, often an IC50 or EC50 that approximates it; bounds were set here for any values at or beyond the usual limits of such assays
- condition_label: source organism: Bacillus anthracis str. A0488
pKd: −log10 of the molar value.
measured_endpoint: pKd

sequence_code=KQGDVFYTA data_value="≤ 4.70"

====

- subject_of_test: HLA-B*15:17
- test_details: IEDB peptide-MHC binding, purified MHC/competitive/fluorescence; filed as Kd, often an IC50 or EC50 that approximates it; bounds were set here for any values at or beyond the usual limits of such assays
- condition_label: source organism: Salmonella enterica subsp. enterica serovar Typhi
measured_endpoint: Kd

sequence_code=IVLLCYGGW measured_endpoint=Kd data_value="175 nM"

====

- subject_of_test: HLA-B*15:09
- test_details: IEDB peptide-MHC binding, purified MHC/direct/fluorescence; filed as Kd, often an IC50 or EC50 that approximates it; bounds were set here for any values at or beyond the usual limits of such assays
- condition_label: source organism: Yellow fever virus
measured_endpoint: Kd (nM)

sequence_code=FHERGYVKL measured_endpoint=Kd result_unit=nM data_value=71

====

- subject_of_test: HLA-A*01:01
- test_details: IEDB peptide-MHC binding, purified MHC/competitive/radioactivity; filed as Kd, often an IC50 or EC50 that approximates it; bounds were set here for any values at or beyond the usual limits of such assays
- condition_label: source organism: Mammarenavirus juninense
measured_endpoint: Kd (µM)

sequence_code=IAMGYVVSSF subject_of_test=HLA-A*01:01 measured_endpoint=Kd data_value=5.14
sequence_code=SMRSVQRNTV subject_of_test=HLA-A*01:01 measured_endpoint=Kd data_value=2.99

src = the Immune Epitope Database (IEDB)
